- target.entity: T1, human BCMA-Fc/His (1-51) (human, UniProt Q02223 1-51)
- T1 construct: also called recombinant human BCMA-Fc/His; recombinant human BCMA-His (Sino Biological Inc.); not shown: Fc region; C-terminal His tag
- T1 sequence: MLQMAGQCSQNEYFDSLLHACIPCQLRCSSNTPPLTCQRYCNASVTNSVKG
- assay.comment: BLI (Octet), antigen on Ni-NTA biosensor, IgG in solution
Task for the reader: assign each of the following binders its reported Kd.
Write down the numeric answer in nM and omit the unit.

Looking up anti-BCMA IgG antibody 2G (antibody, V domains shown) VH: EVQLVESGGGLVQPGGSLRLSCAASGFTFSNYAMSWVRQAPGKGLEWVSAISSSGSTIYYADSVKGRFTISRDNSKNTLYLQMNSLRAEDTAVYYCAKAGYYGSIYAFDYWGQGTLVTVSS VL: DIQMTQSPSSLSASVGDRVTITCRASQSISSYLNWYQQKPGKAPKLLIYATSRLQSGVPSRFSGSGSGTDFTLTISSLQPEDFATYYCQQSSSFPWTFGQGTKVEIKR , I see its Kd listed as 1.08

For record anti-BCMA IgG antibody 4H9 (antibody, V domains shown) VH: EVQLLESGGGLVQPGGSLRLSCAASGFTFSGYSMSWVRQAPGKGLEWVSSIYHTGYTYYNPSLKSRFTISRDNSKNTLYLQMNSLRAEDTAVYYCARYKSGAFDIWGQGTLVTVSS VL: EIVLTQSPGTLSLSPGERATLSCRASQSVSRNLAWYQQKPGQAPRLLIYGVSSRATGIPDRFSGSGSGTDFTLTISRLEPEDFAVYYCQQYGSSPPTFGQGTKVEIKR the listed Kd is 1.29

// Kd lookup, binder = anti-BCMA IgG antibody 5D5 (antibody, V domains shown, also called 5D5 WT; 5D5 antibody) VH: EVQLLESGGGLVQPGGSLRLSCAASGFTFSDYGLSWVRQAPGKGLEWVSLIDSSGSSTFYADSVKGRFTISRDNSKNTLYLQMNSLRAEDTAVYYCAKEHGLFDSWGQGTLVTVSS VL: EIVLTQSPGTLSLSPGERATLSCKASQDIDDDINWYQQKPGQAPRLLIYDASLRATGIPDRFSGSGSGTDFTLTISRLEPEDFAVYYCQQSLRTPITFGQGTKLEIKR , result: 0.114

Where do the numbers come from? From patent US20210284749A1.
